Tested on: neuronal cultures
measurementProtocol: [3H]GABA uptake in primary neuronal cell cultures
Assay type: cell-based, rat
conditionLabel: Rattus norvegicus, Neuron, read-out: IC50 for inhibition of [3H]GABA uptake, Neurons, absence of NNC-711
Listed next: entries and their corresponding IC50.

>  <smilesText>
NCC[C@H](N)C(=O)O

>  <IC50 / µM>
165

$$$$
>  <smilesText>
NCCC(=O)O

>  <IC50 / µM>
4060

$$$$
>  <smilesText>
NCCS(=O)O

>  <IC50 / µM>
742

$$$$

###

Listed next: entries and their corresponding pIC50.
Tested on: O-2A/Type 2 astrocytes
measurementProtocol: [3H]GABA uptake in O-2A/Type 2 astrocyte cultures
Assay type: cell-based, rat
conditionLabel: Rattus norvegicus, Astrocyte, 3 h, read-out: IC50 for inhibition of [3H]GABA uptake, O-2A/Type 2 astrocytes, absence of NNC-711
pIC50: −log10 of the molar value.

>  <smilesText>
NCCS(=O)O

>  <pIC50>
3.21

$$$$
>  <smilesText>
NCCS(=O)(=O)O

>  <pIC50>
1.89

$$$$
>  <smilesText>
NCCC(=O)O

>  <pIC50>
2.69

$$$$
>  <smilesText>
NCC[C@H](N)C(=O)O

>  <pIC50>
4.13

$$$$

###

Listed next: entries and their corresponding inhibition at 1000 µM.
testTarget: taurine transporter (rB16a) (Rattus norvegicus)
Sequence (P31643 1-621): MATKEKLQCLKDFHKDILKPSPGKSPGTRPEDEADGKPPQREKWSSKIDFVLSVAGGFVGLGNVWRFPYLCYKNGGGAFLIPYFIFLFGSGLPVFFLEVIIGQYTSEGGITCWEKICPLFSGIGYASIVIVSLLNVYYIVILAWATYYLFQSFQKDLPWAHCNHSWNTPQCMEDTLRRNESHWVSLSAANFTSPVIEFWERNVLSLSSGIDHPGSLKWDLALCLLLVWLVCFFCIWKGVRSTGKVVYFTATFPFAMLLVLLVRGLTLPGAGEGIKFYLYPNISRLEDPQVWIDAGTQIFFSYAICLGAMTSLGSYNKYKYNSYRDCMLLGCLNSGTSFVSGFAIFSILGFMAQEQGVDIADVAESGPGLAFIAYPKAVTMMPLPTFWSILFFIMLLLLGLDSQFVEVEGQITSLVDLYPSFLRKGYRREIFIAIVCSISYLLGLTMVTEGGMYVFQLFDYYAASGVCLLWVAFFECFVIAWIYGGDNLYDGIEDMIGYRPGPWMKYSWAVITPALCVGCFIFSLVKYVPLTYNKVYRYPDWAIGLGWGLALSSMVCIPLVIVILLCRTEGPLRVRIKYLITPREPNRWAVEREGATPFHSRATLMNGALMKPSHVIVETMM
measurementProtocol: [3H]taurine uptake by COS-7 cells transfected with rB16a
conditionLabel: COS-7, read-out: % Inhibition of [3H]taurine uptake, rB16a, inhibitor 1 mM; 50 nM [3H]taurine, 10 minutes, 37° C.

>  <compound>
NCCC(=O)O

>  <inhibition at 1000 µM>
96%

$$$$
>  <compound>
NCCS(=O)O

>  <inhibition at 1000 µM>
~100%

$$$$
>  <compound>
NCC(=O)O

>  <inhibition at 1000 µM>
< 10%

$$$$
>  <compound>
NCCCS(=O)(=O)O

>  <inhibition at 1000 µM>
~40%

$$$$
>  <compound>
CNC(C)(C)C(=O)O

>  <inhibition at 1000 µM>
< 10%

$$$$
>  <compound>
NCS(=O)(=O)O

>  <inhibition at 1000 µM>
7%

$$$$
>  <compound>
C[N+](C)(C)CC(=O)O

>  <inhibition at 1000 µM>
< 10%

$$$$
>  <compound>
NCCc1ccc(O)c(O)c1

>  <inhibition at 1000 µM>
< 10%

$$$$
>  <compound>
NC[C@H](O)c1ccc(O)c(O)c1 [norepinephrine]

>  <inhibition at 1000 µM>
< 10%

$$$$
>  <compound>
NCCCC(=O)O

>  <inhibition at 1000 µM>
~40%

$$$$
>  <compound>
NCCS(=O)(=O)O

>  <inhibition at 1000 µM>
~100%

$$$$
>  <compound>
N[C@@H](CO)C(=O)O

>  <inhibition at 1000 µM>
< 10%

$$$$

FYI, the data here is from patent US20030143729A1.
